experiment: Solubility of compound in FasSIF at 2 mg at room temperature after 24 hrs by HPLC analysis; type: physicochemical
measurement name: solubility at 24 h (µg/mL)

- record smiles: "Cc1nc(NC(=O)c2cc(CNC(=O)C(C)C)cnc2C(F)F)[nH]c1-c1ccc(C(F)(F)F)cc1"
  measurement name: "solubility at 24 h"
  recorded measurement: 7

* * *

assay: Plasma concentration in beagle dog at 2 mg/kg, po after 24 hrs by LC-MS/MS analysis; type: ADME, organism-based, Canis lupus familiaris
measurement name: concentration at 24 h

- record smiles: "Cc1nc(NC(=O)c2cc(CNC(=O)C(C)C)cnc2C(F)F)[nH]c1-c1ccc(C(F)(F)F)cc1"
  recorded measurement: "> 200 nM"

* * *

Biological target: Prostaglandin E synthase (Homo sapiens)
Sequence (O14684 whole entry): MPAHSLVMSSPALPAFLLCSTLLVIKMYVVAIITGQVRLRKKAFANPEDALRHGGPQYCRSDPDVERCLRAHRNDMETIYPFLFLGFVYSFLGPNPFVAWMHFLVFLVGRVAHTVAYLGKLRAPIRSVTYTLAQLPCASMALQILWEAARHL
Experiment: Inhibition of mPGES1 in rhIL-1beta-stimulated human A549 cells assessed as PGE2 level treated for 18 hrs after 30 mins pre-incubation with rhIL-1beta by EIA method
Format: cell-based
measurement name: IC50 (nM)

- record smiles: "CCC(C)(C)C(=O)NCc1ccc(Cl)c(C(=O)Nc2ncc[nH]2)c1"
  recorded measurement: 1230
- record smiles: "CC[C@H](C)C(=O)NCc1ccc(C(F)F)c(C(=O)Nc2ncc[nH]2)c1"
  recorded measurement: 8860
- record smiles: "Cc1cc(Cl)c(C(=O)Nc2ncc[nH]2)cc1CNC(=O)C(C)C"
  recorded measurement: 8850
- record smiles: "CC(C)C(=O)NCc1ccc(C(F)F)c(C(=O)Nc2ncc(-c3ccc(Cl)cc3)[nH]2)c1"
  recorded measurement: 19
- record smiles: "Cc1ccc(CNC(=O)C(C)(C)C)cc1C(=O)Nc1ncc[nH]1"
  recorded measurement: 4620
- record smiles: "CC(C)(C)C(=O)NCc1ccc(C(F)(F)F)c(C(=O)Nc2ncc[nH]2)c1"
  recorded measurement: 3230
- record smiles: "CC(C)C(=O)NCc1cnc(C(F)F)c(C(=O)Nc2ncc(-c3ccc(Cl)cc3)[nH]2)c1"
  recorded measurement: 37
- record smiles: "Cc1nc(NC(=O)c2cc(CNC(=O)C(C)C)cnc2C(F)F)[nH]c1-c1ccc(Cl)cc1"
  recorded measurement: 39
- record smiles: "CC(=O)NCc1cnc(C(F)F)c(C(=O)Nc2nc(C)c(-c3ccc(C(F)(F)F)cc3)[nH]2)c1"
  recorded measurement: 720

* * *

biological target: UniProt O14684; assay: Inhibition of mPGES1 in LPS-induced human whole blood assessed as suppression of PGE2 response after 20 to 24 hrs by LC-MS/MS analysis; format: tissue-based
Listed here: items and their measured IC80.

- record smiles: "CCC(=O)NCc1cnc(C(F)F)c(C(=O)Nc2nc(C)c(-c3ccc(C(F)(F)F)cc3)[nH]2)c1"
  tested target: "UniProt O14684"
  measure unit: "µM"
  IC80: 0.991
- record smiles: "CC(C)(C)C(=O)NCc1ccc(C(F)F)c(C(=O)Nc2ncc[nH]2)c1"
  tested target: "UniProt O14684"
  measure unit: "µM"
  IC80: 33.7
- record smiles: "Cc1ccc(CNC(=O)C(C)(C)C)cc1C(=O)Nc1ncc[nH]1"
  tested target: "UniProt O14684"
  measure unit: "µM"
  IC80: 9.08
- record smiles: "CCC(C)(C)C(=O)NCc1ccc(Cl)c(C(=O)Nc2ncc[nH]2)c1"
  tested target: "UniProt O14684"
  measure unit: "µM"
  IC80: 9.37
- record smiles: "Cc1nc(NC(=O)c2cc(CNC(=O)C(C)C)cnc2C(F)F)[nH]c1-c1ccc(C(F)(F)F)cc1"
  tested target: "UniProt O14684"
  measure unit: "µM"
  IC80: 0.069
- record smiles: "CC(C)C(=O)NCc1cc(C(=O)Nc2ncc[nH]2)c(Cl)cc1F"
  tested target: "UniProt O14684"
  measure unit: "µM"
  IC80: 57.4
- record smiles: "CC(C)C(=O)NCc1cnc(C(F)F)c(C(=O)Nc2ncc(-c3ccc(Cl)cc3)[nH]2)c1"
  tested target: "UniProt O14684"
  measure unit: "µM"
  IC80: 0.146
- record smiles: "CC(C)C(=O)NCc1ccc(Cl)c(C(=O)Nc2ncc[nH]2)c1"
  tested target: "UniProt O14684"
  measure unit: "µM"
  IC80: 8.8
- record smiles: "CC[C@H](C)C(=O)NCc1ccc(C(F)F)c(C(=O)Nc2ncc[nH]2)c1"
  tested target: "UniProt O14684"
  measure unit: "µM"
  IC80: 21.1
- record smiles: "CC(C)(C)C(=O)NCc1ccc(Cl)c(C(=O)Nc2ncc[nH]2)c1"
  tested target: "UniProt O14684"
  measure unit: "µM"
  IC80: 2.44
- record smiles: "Cc1nc(NC(=O)c2cc(CNC(=O)C(C)C)cnc2C(F)F)[nH]c1-c1ccc(Cl)cc1"
  tested target: "UniProt O14684"
  measure unit: "µM"
  IC80: 0.48
- record smiles: "CC(C)(C)C(=O)NCc1ccc(C(F)(F)F)c(C(=O)Nc2ncc[nH]2)c1"
  tested target: "UniProt O14684"
  measure unit: "µM"
  IC80: 10.5
- record smiles: "CC(C)C(=O)NCc1ccc(C(F)F)c(C(=O)Nc2ncc[nH]2)c1"
  tested target: "UniProt O14684"
  measure unit: "µM"
  IC80: 31
- record smiles: "Cc1cc(Cl)c(C(=O)Nc2ncc[nH]2)cc1CNC(=O)C(C)C"
  tested target: "UniProt O14684"
  measure unit: "µM"
  IC80: 132
- record smiles: "CC(C)C(=O)NCc1ccc(C(F)F)c(C(=O)Nc2ncc(-c3ccc(Cl)cc3)[nH]2)c1"
  tested target: "UniProt O14684"
  measure unit: "µM"
  IC80: 0.994
